This collection of values is drawn from patent US20220323406A1.

Tested on: ENR+CD organoids (ISC to Paneth cell differentiation)
TEST NAME: Primary screen: CCh-stimulated lysozyme secretion LYZ.S, 2.5-D 384-well ENR+CD organoid differentiation
Format: cell-based, mouse
RUN CONDITIONS: primary screen, dose 10.00 uM, FC relative to plate median
Where a name gives a salt, the structure may show the parent alone.
OBSERVED PROPERTY: Dose.FC.LYZ.S (log2 fold change)
Numbers only, in log2 fold change.

// known answers, use as guide
Input "CNC(=O)c1ccccc1Nc1nc(Nc2ccc(N3CCOCC3)cc2OC)ncc1Cl" , output reported Dose.FC.LYZ.S. −0.426

Input CN[C@H]1CC[C@@H](c2ccc(Cl)c(Cl)c2)c2ccccc21 [Sertraline HCl] , output reported Dose.FC.LYZ.S. −0.021

Parameter requested: Dose.FC.LYZ.S. Apply to each item below.
1. Cc1[nH]c(/C=C2\C(=O)Nc3ccc(S(=O)(=O)N(C)c4cccc(Cl)c4)cc32)c(C)c1C(=O)N1CCN(C)CC1
2. CN1CC(=O)N2[C@H](c3ccc4c(c3)OCO4)c3[nH]c4ccccc4c3C[C@@H]2C1=O
3. CC(C)(C)c1cc(NC(=O)Nc2ccc(-c3cn4c(n3)sc3cc(OCCN5CCOCC5)ccc34)cc2)no1
4. COc1cc(Br)c(Nc2nc(-c3c(C)nc4ncccn34)cs2)c(Br)c1
5. Cn1cnc2c(F)c(Nc3ccc(Br)cc3Cl)c(C(=O)NOCCO)cc21
6. CCOC(=O)c1ccc(N2NC(=O)/C(=C/c3ccc([N+](=O)[O-])o3)C2=O)cc1

["−0.300", 0.148, "−0.200", "−0.300", "−0.211", 0.129]

Parameter requested: Dose.FC.LYZ.S. Apply to each item below.
1. Cc1ccc(-n2nccn2)c(C(=O)N2CCN(c3nc4cc(Cl)ccc4o3)CC[C@H]2C)c1
2. Oc1ccc(Nc2nc(-c3ccc(Cl)cc3)cs2)cc1
3. CC(C)N(CCCNC(=O)Nc1ccc(C(C)(C)C)cc1)C[C@H]1O[C@@H](n2cc(Br)c3c(N)ncnc32)[C@H](O)[C@@H]1O
4. CNC(=O)c1ccc2cc([C@@]3(O)CCn4cncc43)ccc2c1
5. CC(C)(C)c1cnc(CSc2cnc(NC(=O)C3CCNCC3)s2)o1
6. CCn1c(N)c(C(=O)NC)c(=O)c2ccc(C#C[C@@](C)(O)COC)nc21

1: 0.131; 2: −0.191; 3: 0.065; 4: 0.032; 5: −0.361; 6: 0.000

Parameter requested: Dose.FC.LYZ.S. Apply to each item below.
1. COc1cc2c(cc1OC)[C@@H]1Cc3ccc(OC)c(OC)c3CN1CC2
2. COc1c(C)c(C(=O)c2ccc(N)c(C(=O)[O-])c2)n2ccccc12.[Na+] [SSR128129E]

[0.095, "−0.095"]

Parameter requested: Dose.FC.LYZ.S. Apply to each item below.
1. Cc1nnc(C(=O)NC(C)(C)c2nc(C(=O)NCc3ccc(F)cc3)c(O)c(=O)n2C)o1
2. O=S(=O)(c1ccccc1)N(CC(F)(F)F)c1ccc(C(O)(C(F)(F)F)C(F)(F)F)cc1
3. COc1ccc(C2CNC(=O)C2)cc1OC1CCCC1 (centres unmarked) [Rolipram, reference compound]
4. O=C(NC(Cc1cc(=O)[nH]c2ccccc12)C(=O)O)c1ccc(Cl)cc1 (centres unmarked) [Rebamipide]
5. Cl.NC(=O)c1cnc(N[C@@H]2CCCC[C@@H]2N)nc1Nc1cccc(-n2nccn2)c1 [PRT062607 (P505-15, BIIB057) HCl]
6. CNC(=C[N+](=O)[O-])NCCSCc1ccc(CN(C)C)o1

1. 0.183
2. −0.034
3. 0.223
4. −0.063
5. −0.298
6. −0.043

Input Cc1cc2c(cc1CC(=O)c1sccc1S(=O)(=O)Nc1onc(C)c1Cl)OCO2 [Sitaxentan sodium] , output reported Dose.FC.LYZ.S. −0.047
